Measured TGI values are reported for all entries that follow.
# Test system: U251 CNS
# test_summary: NCI tumour cell line growth inhibition, 48 h

Below are worked cases with known answers.
| compound | test_readout | value_measured |
| --- | --- | --- |
| C=CCc1ccccc1C1CC2(C(=O)OC)OC1C(C(=O)OC)=C2C(=O)OC (stereo not given) | TGI | > 10 µM |
| CC(C)(CN1CCCCC1)C(/C=C/c1ccccc1)=N\NC(=O)N/N=C(/C=C/c1ccccc1)C(C)(C)CN1CCCCC1 | TGI | 3 µM |
| CC(C)(C)n1cc(-c2ccnc(NCCCNS(=O)(=O)c3ccc(Br)cc3)c2)c(-c2cccc(O)c2)n1 | TGI | 3.66 µM |

Given the entry COc1ccc(N2C(=O)C3c4[nH]c5ccccc5c4C4CCCCCCC4C3C2=O)cc1 (stereo not given) , what TGI was observed with U251 CNS?
16.5 µM

GET /values?readout=TGI&system=U251 CNS&item= COc1cc2c3c(c1OC)C1(C=CC(=O)C=C1)CC3NCC2 (stereo not given)
> 100 µM

Form: Entry = COc1cc2oc(-c3ccc4c(c3)OCO4)c(OC)c(=O)c2c(O)c1OC | System = U251 CNS | TGI = ____
> 50 µM

Please state recorded TGI (tested on U251 CNS) of COC(=O)[C@](C)(Cc1ccccc1)NC(=O)[C@@H](C)N1[C@@H](c2ccccc2)COC1(C)C
> 100 µM

For U251 CNS, provide TGI of Cc1c(C#N)c(=N)oc2ccccc12 please.
> 100 µM

Record lookup: for U251 CNS, what TGI belongs to CC1=NN2C(=N)/C(=C/c3ccccc3)C(=O)N=C2S1 ?
> 100 µM

Requested read-out TGI, target or system U251 CNS, entry Cc1ccc(/C=C2/NC(=S)SC2=O)cc1
> 100 µM
